test system: Plasmodium falciparum; test: GSK_TCMDC: Inhibition of Plasmodium falciparum 3D7 in whole red blood cells, using parasite LDH activity as an index of growth. Test compounds present at 2uM; type: functional
# maps each entry to its Inhibition
Readout: Inhibition (%)

INSERT INTO assay_data (compound, experimental_value) VALUES
  ('O=C(Cc1ccccc1)NC1(c2ccccc2)CCN(CCc2c[nH]c3ccc(F)cc23)CC1', 87),
  ('CC(Cc1ccc(NS(=O)(=O)c2ccc(CC(C)NCCc3cccc(Cl)c3)cc2)cc1)NCCc1cccc(Cl)c1 (centres undefined)', 100),
  ('COc1nc2c(CCN3CC[C@H](NCc4ccc5c(c4)NC(=O)CO5)[C@H](O)C3)c(Cl)cnc2cc1F.Cl', 90),
  ('Cc1ccc(Nc2nc(N/N=C/c3cccc([N+](=O)[O-])c3)nc(Nc3ccccc3)n2)c(C)c1', 91),
  ('CCOC(=O)c1c(C)n(-c2ccccc2)c2ccc(O)cc12', 100),
  ('O=C(Nc1ccc(OC2CCN(Cc3ccc(F)cc3)CC2)cc1)c1cccs1.O=C(O)C(F)(F)F', 84),
  ('Cn1cncc1C(=O)Nc1cccc(-c2csc(-c3nc4ccccc4[nH]3)c2)c1', 100),
  ('COc1cccc(C=NNc2cc(C)nc3c(OC)cccc23)c1', 99),
  ('COc1cccc(-c2ccc(C(=O)NCC3CCCN(Cc4cccc(C(F)(F)F)c4)C3)s2)c1.O=C(O)C(F)(F)F (centres undefined)', 85);

* * *

system: Plasmodium falciparum; test: GSK_TCMDC: Inhibition of Plasmodium falciparum 3D7 in whole red blood cells, using parasite LDH activity as an index of growth. Test compounds present at 2uM; type: functional
Readout: Inhibition

INSERT INTO measurements (molecule, experimental_value) VALUES
  ('Cc1nc2nc(N)nc(N)c2c(C)c1Cc1cccc(C#N)c1.Cl', '97%'),
  ('COc1cccc(-c2ccc3c(-c4ccc(F)cc4)cnc(N)c3c2)c1.O=CO', '100%'),
  ('O=C(Nc1ccc2c(c1)CCC2)c1cccc(CN2CCCN(Cc3cccc(O)c3)CC2)c1.O=C(O)C(F)(F)F', '91%'),
  ('CCCN(CC1CC1)c1ncc(-c2cccc(CNCCC3CCCN3C)c2)cn1 (centres undefined)', '98%'),
  ('O=C(c1ccc(-c2ccc(-c3nc4cc(C(F)(F)F)ccc4[nH]3)s2)cc1)N1CCN(CCc2ccccc2)CC1', '98%'),
  ('O=C(Nc1cc(C(F)(F)F)ccc1-n1cncn1)C1(c2ccccc2)CC1', '100%'),
  ('CN(C)CCNCc1cccc(-c2ccc3c(Nc4ccc(Oc5ccccc5)cc4)ccnc3c2)c1', '100%'),
  ('COc1cc2nc(NCCc3ccccc3)nc(NCc3cc(C)no3)c2cc1OC', '99%'),
  ('C[C@H](Cc1ccc(OCCCCOc2ccc(C[C@@H](C)NC[C@H](O)c3cccc(Cl)c3)cc2)cc1)NC[C@H](O)c1cccc(Cl)c1', '100%');

* * *

# maps each entry to its Inhibition
system: HepG2; test: GSK_TCMDC: Percent inhibition of human HepG2 cell line. Test compounds present at 10uM.; format: functional
Readout: Inhibition (%)

INSERT INTO assay_data (molecule, readout, uom, experimental_value) VALUES
  ('CC(C)[C@@H](NC(=O)NC1CCC(CCN2C3CCC2CC(OC(=O)C(CO)c2ccccc2)C3)CC1)C(O)(c1ccccc1)c1ccccc1 (stereo partly drawn)', 'Inhibition', '%', 19),
  ('Cc1cccc(NC(=O)c2ccc(C(=O)NC3CCN(CC4CCCCC4)C3)cc2)c1.O=C(O)C(F)(F)F (stereo not drawn)', 'Inhibition', '%', 17),
  ('Cc1nccc2c(NC(=O)N[C@@H]3CCN(c4ncc(C(F)(F)F)cc4Br)C3)cccc12.Cl', 'Inhibition', '%', 21),
  ('Cc1cccc2nc(-c3ccc(-c4cccc(NC(=O)NCc5cccc(F)c5)c4)s3)[nH]c12', 'Inhibition', '%', 24),
  ('Brc1ccc(C=NNc2nc3ccccc3[nH]2)cc1', 'Inhibition', '%', 0),
  ('O=C(Nc1cccc(-c2ccc(-c3nc4cc(C(F)(F)F)ccc4[nH]3)cc2)c1)c1c[nH]cn1', 'Inhibition', '%', 16),
  ('COCCNCc1ncsc1-c1ccc2c(Nc3cc(O)c(Cl)cc3F)ccnc2c1', 'Inhibition', '%', 0),
  ('Cc1ccc(/C=C/C(=O)N2CCC(CCN3CCC(c4c[nH]c5ccccc45)CC3)CC2)cc1C', 'Inhibition', '%', 50),
  ('COCn1ncc2cc(-c3cccc(NC(=O)c4csc(NC(C)=O)n4)c3)ccc21', 'Inhibition', '%', 0),
  ('CCOc1ccccc1C1C(C(=O)C(C)(C)C)N2c3ccc(Br)cc3C=CC2C12C(=O)c1ccccc1C2=O (stereo not drawn)', 'Inhibition', '%', 17),
  ('Cl.O=C(Nc1ccnc2ccccc12)NC1CCN(Cc2ccccc2)CC1', 'Inhibition', '%', 18),
  ('CC(C)(C)c1ccc(CN2CCC(NC(=O)c3ccc(-c4ccccc4Cl)s3)CC2)cc1.O=C(O)C(F)(F)F', 'Inhibition', '%', 36),
  ('Fc1ccc(CNc2ncc(-c3ccsc3)c(-c3nccs3)n2)cc1', 'Inhibition', '%', 7),
  ('CCCCCN1CCC(NC(=O)c2ccc(C(=O)Nc3ccc(C(C)C)cc3)cc2)CC1.O=C(O)C(F)(F)F', 'Inhibition', '%', 41),
  ('CCn1c(-c2nonc2N)nc2cnc(Oc3cccc(NC(=O)c4ccc(OCCN5CCCC5)cc4)c3)cc21', 'Inhibition', '%', 25),
  ('CCOc1cc(C(=O)NCCCN2CCCCC2C)ccc1-c1nc2cc(Cl)ccc2[nH]1 (stereo not drawn)', 'Inhibition', '%', 2),
  ('Cc1cccc2nc(-c3cccc(-c4ccc(NC(=O)Cc5ccc[n+]([O-])c5)cc4)c3)[nH]c12', 'Inhibition', '%', 11),
  ('Cc1[nH]c(C)c(-c2ccc(Oc3ccc(OC(F)(F)F)cc3)cc2)c(=O)c1Br', 'Inhibition', '%', 0);

Attribution: ChEMBL document CHEMBL1157539
